System: Escherichia coli TOP10
PROCEDURE TEXT: shrunken log2 fold change of peptide-encoding DNA abundance (4.5 h post-induction vs induction); higher = less antimicrobial activity (less host growth inhibition)
CONDITION DETAILS: time post-induction: 4.5 h; library: site-saturation at positions 5, 18, 19, 20
ASSAY ENDPOINT: shrunken log2 fold change
Please reply with the value in numeric form only.

{"BIOSEQUENCE": "RRIRWRPPRLPRPRPRPGMYPRP", "SUBJECT OF TEST": "Escherichia coli TOP10", "QUANTITATIVE READOUT": 0.0165}
{"BIOSEQUENCE": "RRIRPRPPRLPRPRPRPIEMPRP", "SUBJECT OF TEST": "Escherichia coli TOP10", "QUANTITATIVE READOUT": 0.00861}
{"BIOSEQUENCE": "RRIRHRPPRLPRPRPRPLTGPRP", "SUBJECT OF TEST": "Escherichia coli TOP10", "QUANTITATIVE READOUT": -0.00273}
{"BIOSEQUENCE": "RRIRNRPPRLPRPRPRPANNPRP", "SUBJECT OF TEST": "Escherichia coli TOP10", "QUANTITATIVE READOUT": -0.0944}
{"BIOSEQUENCE": "RRIRTRPPRLPRPRPRPKQWPRP", "SUBJECT OF TEST": "Escherichia coli TOP10", "QUANTITATIVE READOUT": 0.158}
{"BIOSEQUENCE": "RRIRLRPPRLPRPRPRPFLGPRP", "SUBJECT OF TEST": "Escherichia coli TOP10", "QUANTITATIVE READOUT": -0.0654}
{"BIOSEQUENCE": "RRIRQRPPRLPRPRPRPAASPRP", "SUBJECT OF TEST": "Escherichia coli TOP10", "QUANTITATIVE READOUT": 0.129}
{"BIOSEQUENCE": "RRIRTRPPRLPRPRPRPKMFPRP", "SUBJECT OF TEST": "Escherichia coli TOP10", "QUANTITATIVE READOUT": -0.0043}

Please tell me: shrunken log2 fold change of "RRIRYRPPRLPRPRPRPPRGPRP" , system Escherichia coli TOP10?
0.284

Param readout = shrunken log2 fold change; param system = Escherichia coli TOP10; param query = "RRIRGRPPRLPRPRPRPKPTPRP" ; response: value
0.527

Item: "RRIRRRPPRLPRPRPRPDILPRP" Test system: Escherichia coli TOP10 Read-out: shrunken log2 fold change Value: ?
0.0906

Any idea what shrunken log2 fold change came out for "RRIRSRPPRLPRPRPRPDILPRP" on Escherichia coli TOP10?
0.115

API: value(readout= shrunken log2 fold change, system= Escherichia coli TOP10, query= "RRIRSRPPRLPRPRPRPSKQPRP" );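 note: peptides expressed intracellularly from a pBAD plasmid library in pooled LB shake-flask culture, induced with 0.3% L-arabinose, DNA abundance read by NGS, three biological replicates, DESeq2 with apeglm shrinkage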
-0.225
